Source of measurements: the supplement of paper PMC8882468

System: HCI-027 (organoid from a triple-negative breast cancer xenograft)
protocolDescription: CTG-3D luminescence at 96 h relative to day-0 seeding control (ratio to day 0); higher = more growth / less cytotoxicity; PDxO 3D drug screen, 96 h, CTG-3D normalised to day-0 seeding control.
conditionContext: 0.1 µM; days in culture: 201
reportedProperty: CTG-3D luminescence at 96 h

1) C[C@H](NC(=O)CCC(F)(F)F)C(=O)N[C@@H]1C(=O)N(CCO)c2ncccc2-c2ccccc21; 0.249
2) CC1(C)CCC(c2ccc(Cl)cc2)=C(CN2CCN(c3ccc(C(=O)NS(=O)(=O)c4ccc(N[C@H](CCN5CCOCC5)CSc5ccccc5)c(S(=O)(=O)C(F)(F)F)c4)cc3)CC2)C1; 3.18
3) O=C(/C=C/c1cccnc1)NCCCCC1CCN(C(=O)c2ccccc2)CC1; 0.0645
4) O=C(O)C1(C(=O)O)CCC1.[NH2-].[NH2-].[Pt+2]; 2.08
5) C[C@]12CC[C@@H]3c4ccc(O)cc4C[C@@H](CCCCCCCCC[S+]([O-])CCCC(F)(F)C(F)(F)F)[C@H]3[C@@H]1CC[C@@H]2O (some centres not stated); 2.64
6) CC(C)n1nc(-c2ccc3oc(N)nc3c2)c2c(N)ncnc21; 0.956
7) CCN1CCN(Cc2ccc(Nc3ncc(F)c(-c4cc(F)c5nc(C)n(C(C)C)c5c4)n3)nc2)CC1; 2.54
